Where do these numbers come from? They come from PubChem BioAssay.

# reported cell count; entries follow
- assay text: inhibitors of TNFa-induced NFkB p65 translocation, primary screen, imaging, HUVEC, MLSMR starter and 10KST1 sets (AID 438);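 also: compound added about 3h40 before a 20 min TNFalpha stimulation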
- condition set: HUVEC TNFa-induced p65 nuclear translocation; measured here: nuclei count (cytotoxicity indicator), at 2.08 µM

[
  {
    "compound": "COc1cc(OC)nc(NC(=O)CSc2nc3ccccc3o2)n1",
    "cell count": 740
  },
  {
    "compound": "Cc1ccc(CN2C(=O)CCC2C(=O)NC2CCCC2)cc1 (stereo unspecified)",
    "cell count": 382
  },
  {
    "compound": "COc1cccc(-c2nc(CS(=O)(=O)CC(=O)N3CCN(c4ccccn4)CC3)c(C)o2)c1",
    "cell count": 752
  },
  {
    "compound": "CCOc1ccc(NC(=O)CSc2nnc(COc3c(C)cccc3C)o2)cc1",
    "cell count": 577
  },
  {
    "compound": "CCC(C)C(=O)Nc1nc2c(s1)C(=O)CC(C)(C)C2 (stereo unspecified)",
    "cell count": 612
  },
  {
    "compound": "O=C(c1cc2n(n1)C(C(F)(F)F)CC(c1ccc(Cl)cc1)N2)N1CCCC1 (stereo unspecified)",
    "cell count": 259
  },
  {
    "compound": "c1ccc(OCc2nc3ccccc3[nH]2)cc1",
    "cell count": 443
  },
  {
    "compound": "CCCCOc1ccc(S(=O)(=O)n2c(C)nc3ccccc32)cc1",
    "cell count": 445
  },
  {
    "compound": "CCOC(=O)Nc1nnc(-c2ccccc2OC)s1",
    "cell count": 613
  },
  {
    "compound": "CCCC(=O)Nc1nc2ccc(S(N)(=O)=O)cc2s1",
    "cell count": 718
  },
  {
    "compound": "Cc1nc2sc(C(c3cccs3)N3CCC(C(N)=O)CC3)c(O)n2n1 (stereo unspecified)",
    "cell count": 625
  }
]

---

# reported inhibition; entries follow
- assay text: blockers of RIG-like receptor reporter activation – cell-based, Sendai virus stimulus, luciferase, 10K MLSCN set, TLR/RLR signaling modifier project, primary screen (AID 602276);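 also: firefly luciferase from ISG56 promoter only with Renilla not read in this screen; 0% = Sendai virus plus DMSO and 100% = medium plus DMSO without virus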
- condition set: HEK293 RL24 IRF3 luciferase reporter, at 10 µM, stronger effect = higher value
Active and inactive are the calls of the source.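 How the source made its calls: active means inhibition at or above 50% at 10 µM; inactive means inhibition below 50%.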
metric: inhibition

[
  {
    "compound": "COc1ccc(NC(=O)CN(c2ccc(C(C)C)cc2)S(=O)(=O)c2c(C)noc2C)cc1OC",
    "metric": "inhibition",
    "recorded value": "18.3% (inactive)"
  },
  {
    "compound": "O=C(NCCN1C(=O)C2C3C=CC(C3)C2C1=O)Nc1ccccn1 (stereo not drawn)",
    "metric": "inhibition",
    "recorded value": "7.16% (inactive)"
  },
  {
    "compound": "O=C(COC(=O)c1cnccn1)c1ccc(OC(=O)c2ccccc2)cc1",
    "metric": "inhibition",
    "recorded value": "18.9% (inactive)"
  },
  {
    "compound": "CCOc1cc(C(=O)N(C)Cc2cc3ccccc3[nH]c2=O)cc(OCC)c1OCC",
    "metric": "inhibition",
    "recorded value": "11.9% (inactive)"
  },
  {
    "compound": "O=c1c(-c2ccccc2)coc2c(CN3CCOCC3)c(O)ccc12",
    "metric": "inhibition",
    "recorded value": "-3.14% (inactive)"
  },
  {
    "compound": "O=C(Nc1ccccc1C(=O)N1CCN(c2ccccc2)CC1)c1ccco1",
    "metric": "inhibition",
    "recorded value": "0.26% (inactive)"
  },
  {
    "compound": "CCn1c(SCC(=O)c2ccc(OC)cc2)nnc1C(C)NC(=O)c1ccc(OC)cc1 (stereo not drawn)",
    "metric": "inhibition",
    "recorded value": "-3.91% (inactive)"
  },
  {
    "compound": "CCCCP(=O)(CCCC)c1ccccc1C(=O)O",
    "metric": "inhibition",
    "recorded value": "6.88% (inactive)"
  },
  {
    "compound": "CCC1CCCCN1C(=O)C1CC(c2cc(Cl)c(OC)cc2OC)=NO1 (stereo not drawn)",
    "metric": "inhibition",
    "recorded value": "-1.49% (inactive)"
  },
  {
    "compound": "c1ccc(N2CCN(Cc3cn4cccnc4n3)CC2)cc1",
    "metric": "inhibition",
    "recorded value": "8.99% (inactive)"
  },
  {
    "compound": "O=S(=O)(Cc1ccccc1)N1CCCCCC1",
    "metric": "inhibition",
    "recorded value": "-4.29% (inactive)"
  },
  {
    "compound": "COc1ccccc1S(=O)(=O)Cc1ccc(C(=O)N2CCN(c3ccc(C)cc3)C(C)C2)o1 (stereo not drawn)",
    "metric": "inhibition",
    "recorded value": "16.6% (inactive)"
  },
  {
    "compound": "CC(=O)c1ccccc1OCCn1nnc(-c2ccc(C)cc2)n1",
    "metric": "inhibition",
    "recorded value": "12.9% (inactive)"
  },
  {
    "compound": "Cc1cc(C)nc(SCCS(=O)Cc2ccc(Cl)cc2)n1 (stereo not drawn)",
    "metric": "inhibition",
    "recorded value": "5.96% (inactive)"
  },
  {
    "compound": "N#Cc1nc(-c2ccco2)oc1NCc1ccco1",
    "metric": "inhibition",
    "recorded value": "-2.68% (inactive)"
  },
  {
    "compound": "Cc1nc(CCNS(=O)(=O)c2cccs2)cs1",
    "metric": "inhibition",
    "recorded value": "-9.77% (inactive)"
  },
  {
    "compound": "O=C(O)C1CCCN1S(=O)(=O)c1ccc2ccccc2c1 (stereo not drawn)",
    "metric": "inhibition",
    "recorded value": "-1.98% (inactive)"
  },
  {
    "compound": "O=C(Oc1cccc2cccnc12)c1cccc(-n2cnnn2)c1",
    "metric": "inhibition",
    "recorded value": "15% (inactive)"
  },
  {
    "compound": "CC1CCN(C(=O)Cn2cc3c(n2)CCCC3)CC1",
    "metric": "inhibition",
    "recorded value": "-32.6% (inactive)"
  },
  {
    "compound": "COc1ccccc1NC(=O)CSc1nnc(Cc2cccn2C)n1-c1ccc(F)cc1",
    "metric": "inhibition",
    "recorded value": "11.3% (inactive)"
  },
  {
    "compound": "CC(C)(C)C1CCc2[nH]nc(C(=O)O)c2C1 (stereo not drawn)",
    "metric": "inhibition",
    "recorded value": "12.4% (inactive)"
  },
  {
    "compound": "CCCCOC(=O)CNc1nnc(SCC(=O)OCC)[nH]c1=O",
    "metric": "inhibition",
    "recorded value": "2.96% (inactive)"
  },
  {
    "compound": "O=C(C1CCCN(S(=O)(=O)c2cccnc2)C1)N1CCN(c2ccccn2)CC1 (stereo not drawn)",
    "metric": "inhibition",
    "recorded value": "5.38% (inactive)"
  }
]

---

- system: Alpha-2C adrenergic receptor (Homo sapiens) (UniProt P18825)
- Sequence (P18825 whole entry, looked up): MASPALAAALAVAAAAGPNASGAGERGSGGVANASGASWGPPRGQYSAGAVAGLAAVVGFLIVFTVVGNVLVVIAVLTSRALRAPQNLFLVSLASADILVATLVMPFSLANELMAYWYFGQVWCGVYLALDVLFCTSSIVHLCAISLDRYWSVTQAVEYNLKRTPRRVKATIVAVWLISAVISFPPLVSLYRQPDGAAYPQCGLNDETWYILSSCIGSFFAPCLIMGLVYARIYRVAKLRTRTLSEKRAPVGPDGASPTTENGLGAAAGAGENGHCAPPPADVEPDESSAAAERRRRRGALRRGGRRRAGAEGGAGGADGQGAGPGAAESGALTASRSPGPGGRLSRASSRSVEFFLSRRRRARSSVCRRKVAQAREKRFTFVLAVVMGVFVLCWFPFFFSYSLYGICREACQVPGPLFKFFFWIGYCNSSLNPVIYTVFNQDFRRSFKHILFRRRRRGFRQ
- assay text: compounds altering alpha2C-coupled GIRK flux – cell-based, HEK293 alpha2C/GIRK1/2, thallium flux, primary screen (AID 624);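 also: slope of fluorescence ratio to pre-addition baseline per second over 15 to 24 s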
- condition set: thallium flux BTC fluorescence, at 10 µM, actives lie on both sides

[
  {
    "compound": "CCOc1ccc(NCc2nnc(SCC(=O)Nc3cc(C)on3)n2-c2ccccc2OC)cc1",
    "slope": 0.00835
  },
  {
    "compound": "Nn1c(SCC(=O)Nc2ccc3c(c2)OCO3)nnc1C1CC1",
    "slope": 0.00672
  },
  {
    "compound": "COc1cc2cc(C(c3nnnn3C3CCCC3)N(C)C3CCCCC3)c(=O)[nH]c2cc1OC (stereo unspecified)",
    "slope": 0.007
  },
  {
    "compound": "c1ccc2c(c1)CNc1ccccc1C2",
    "slope": 0.00468
  },
  {
    "compound": "COC(=O)C1=C(C)NC(=O)C1(Nc1ccc(Cl)cn1)C(F)(F)F (stereo unspecified)",
    "slope": 0.00613
  },
  {
    "compound": "COc1cc(C(=O)Nc2nc(-c3cccs3)cs2)cc(OC)c1OC",
    "slope": 0.00722
  },
  {
    "compound": "COc1ccc(-n2ncc3c(N4CCC(C)CC4)ncnc32)cc1",
    "slope": 0.00789
  },
  {
    "compound": "CC(=O)c1c(C)oc2ccc(NS(=O)(=O)c3ccc(O)c(C(=O)O)c3)cc12",
    "slope": 0.00663
  },
  {
    "compound": "O=C(Nn1cnnc1)c1cc2c(s1)CCCC2",
    "slope": 0.00357
  },
  {
    "compound": "O=C1C2C3C=CC(C3)C2C(=O)N1c1cccc(N2C(=O)C3C4C=CC(C4)C3C2=O)n1 (stereo unspecified)",
    "slope": 0.00682
  },
  {
    "compound": "CCOC(=O)c1c(-c2ccc(C)o2)csc1NC(=O)COC(=O)c1cccs1",
    "slope": 0.00798
  }
]
